# ASSAY_EXPLANATION: yeast display, Sf9 membrane polyspecificity reagent, FACS + sequencing; frameworks hold sequencing errors
READOUT_TYPE: polyreactivity (PSR sort gate)

| ITEM_SEQUENCE | EXPERIMENTAL_RESULT |
| --- | --- |
| QVQLVESGGGLVQAGGSLRLSCAASGFISPYAMRWYRQAPGKERELVAVITSSGGSTYYADSVKGRFTISRDNAKNTVYLQMNSLKPEDTAVYYCAARFYFRWYYYGSYANYWGQGTQVTVSS | high polyreactivity |
| QVQLVESGGGLVQAGGSLRLSCAASGIFVSDAMGWYSQAPGKVRELVAAIRYSGDSTYYADSVKGRFTISRDNAKNTVYLQMNSLKPEDTAVYYCAATKGWTRYEYWGQGTQVTVSS | low polyreactivity |
| QVQLVESAGGLVQAGGSLRLSCAASGRIFPFYAMGWYRQAPGKERELVAAISWNGGSTFYADSVKGRFTISRDNAKNTVYLQMNSLKPEDTAVYYCNADCRPAYTYDYWGQGTQVTVSS | low polyreactivity |
| QVQLVESGGGLVQAGGSLRLSCAASGFTFESNAMGWYRQAPGKERELVAAITSSGGRTYYADSVKGRFTISRDNAKNTVYLQMNSLKPEDTAVYYCAATGKAPRESGGVYSMDWGQGTQVTVSS | low polyreactivity |

Q. Sample QVQLVESGGGLVQAGGSLRLSCAASGRIFNVYAMGWYRQAPGKERELVASINSAGSTYYADSVKGRFTISRDNAKNTVYLQMNSLKPEDTAVYYCAADSYSVYYYTYDSWGQGTQVTVSS — what was its polyreactivity (PSR sort gate)?
A. low polyreactivity

Q. Sample QVQLVESGGGLVQAGGSLRLSCAASGFIFQRYAMGWYRPAPGKERELVAAISWSGGSTSYADSVKGRFTISRDNAKNPVYLQMYSLKPVDTAVYYCAARRPVYRKYGDRGRWYNYWGQGTQVTVSS — what was its polyreactivity (PSR sort gate)?
A. high polyreactivity

Q. Sample QVQLVESGGGLVQAGGSLRLSCAASGTFVLSAMGWYRPAPGKERELVAAISKTGRTYYADSVKGRFTISRDNAKNTVYLQMNSLKPEDTSVYYCAAQRFSKFGYWGQGTQVTVSS — what was its polyreactivity (PSR sort gate)?
A. high polyreactivity

Q. Sample QVQLVESGGGLVQAGGSLRLSCAASGLIFWLNAMGWYRQAPGKERELVAAISSSGGRTYYADSVKGRFTISRDNAKNTVYLQMNSLKPEDTAVYYCNRGQQGRGWWGYDYWGHGTQVTVSS — what was its polyreactivity (PSR sort gate)?
A. high polyreactivity
